- System: U 46619-induced pulmonary embolism
- assay details: Preventing the U 46619-induced pulmonary embolism (survival rate of mouse)
- Format: in vivo, mouse (male NMRI)
- condition notes: 25 mg/kg by stomach tube in 1% methylcellulose, lethal U 46619 (800-1000 μg/kg) into tail vein after 4 hours; survivors/animals used
Please go through the items and note down their Survival Rate of Mouse 25 mg/kg, 4 h.

Example entries begin here.
compound: O=C(O)COc1ccc(CCNS(=O)(=O)c2ccccc2)cc1 [Comparison Compound, reference compound]
reported property: Survival Rate of Mouse 25 mg/kg, 4 h
observed: 2/2
--
compound: O=C(O)c1cc2cc(CCNS(=O)(=O)c3ccc(Br)cc3)ccc2o1
reported property: Survival Rate of Mouse 25 mg/kg, 4 h
observed: 5/5
--
compound: O=C(O)c1cc2cc(CCNS(=O)(=O)c3ccc(Cl)cc3)ccc2o1
reported property: Survival Rate of Mouse 25 mg/kg, 4 h
observed: 10/10
--
compound: Cc1ccc(S(=O)(=O)NCCc2ccc3oc(C(=O)O)cc3c2)cc1
reported property: Survival Rate of Mouse 25 mg/kg, 4 h
observed: 4/5
--
compound: O=C(O)C1Cc2cc(CCNS(=O)(=O)c3ccccc3)ccc2O1 (stereo not drawn)
reported property: Survival Rate of Mouse 25 mg/kg, 4 h
observed: 5/5

Data request: Survival Rate of Mouse 25 mg/kg, 4 h for "Cc1c(C(=O)O)oc2ccc(CCNS(=O)(=O)c3ccc(Cl)cc3)cc12" ?
Data returned: 5/5
